Sourced from patent US20250032485A1

Biological target: PLpro of SARS-CoV-2 (Severe acute respiratory syndrome coronavirus 2)
Test: Enzyme activity test in vitro: inhibition of PLpro at fixed concentration 50 μM (RLRGG-AMC substrate)
Assay type: biochemical
Conditions: read-out: Inhibition rate at 50 μM (%)
Property measured: inhibition at 50 µM (%)
Numbers only, in %.

Use these answered entries as a reference point.
1. CC(C)NC(=O)c1cccc(Nc2c(-c3ccccc3)nc3cnccn23)c1 : 29
2. COc1ccc(-c2nc3cnccn3c2Nc2ccc(C(=O)N3CCCCC3)cc2)cc1 : 31.8
3. O=C(c1cccc(Nc2c(-c3ccccc3)nc3cnccn23)c1)N1CCOCC1 : 28.2

Below: the item to evaluate.
Name the recorded inhibition at 50 µM for O=C(NCc1ccco1)c1cccc(Nc2c(-c3ccccc3)nc3cnccn23)c1 . 27.5

====

Assignment: determine reported inhibition at 50 µM for the given compounds.
Target: PLpro of SARS-CoV-2 (Severe acute respiratory syndrome coronavirus 2)
Assay: Enzyme activity test in vitro: inhibition of PLpro at fixed concentration 50 μM (RLRGG-AMC substrate)
Format: biochemical
Settings: read-out: Inhibition rate at 50 μM (%)

1. CCOC(=O)c1ccc(Nc2c(-c3ccc(O)cc3)nc3cnccn23)cc1 : 32.6%
2. O=C(O)c1ccc(Nc2c(-c3cc(Br)ccc3O)nc3cnccn23)cc1 : 27.6%

Name the recorded inhibition at 50 µM for O=C(O)c1cccc(Nc2c(-c3ccccc3)nc3cnccn23)c1 . 31.2%

====

Target: UniProt:P0DTD1
Assay: Enzyme activity test in vitro: inhibition of PLpro at fixed concentration 50 μM (RLRGG-AMC substrate)
Type: biochemical
Conditions: read-out: Inhibition rate at 50 μM (%)
# class assignment by measured inhibition at 50 µM: bucket A (below 30%), bucket B (30% to below 40%), bucket C (40% or more)

See these solved cases before continuing.
1. O=C(NCCN1CCOCC1)c1ccc(Nc2c(-c3ccc(Cl)cc3)nc3cnccn23)cc1 : bucket B
2. O=C(NCCN1CCOCC1)c1cccc(Nc2c(-c3ccc(Cl)cc3)nc3cnccn23)c1 : bucket C
3. CC(C)NC(=O)c1cccc(Nc2c(-c3ccc(Cl)cc3)nc3cnccn23)c1 : bucket B

Consider CSc1ccc(-c2nc3cnccn3c2Nc2cccc(C(=O)NC(C)C)c2)cc1 . To which inhibition at 50 µM class does it belong? bucket C

Input O=C(c1ccc(Nc2c(-c3ccccc3)nc3cnccn23)cc1)N1CCCCC1 bucket C

Input Cc1ccc(-c2nc3cnccn3c2Nc2ccc(C(=O)NC(C)C)cc2)cc1 bucket B

Input CCOC(=O)c1ccc(Nc2c(-c3ccc(SC)cc3)nc3cnccn23)cc1 bucket B

Input CCOC(=O)c1ccc(Nc2c(-c3cccc(O)c3)nc3cnccn23)cc1 bucket A

Input CCc1cccc(C)c1Nc1c(-c2ccc(N)cc2)nc2cnccn12 bucket A

Input CCOC(=O)c1ccc(Nc2c(-c3ccccc3O)nc3cnccn23)cc1 bucket A

Input COc1ccc(-c2nc3cnccn3c2Nc2ccc3c(c2)OCCO3)cc1OC bucket A

Input COC(=O)c1ccc(-c2nc3cnccn3c2Nc2ccc(Cl)cc2)cc1 bucket C

Input CCNC(=O)c1cccc(Nc2c(-c3ccccc3)nc3cnccn23)c1 bucket C
